Measured Plant response rating, Johnsongrass of individual entries
Test system: johnsongrass
Assay: Test E preemergence
Format: in vivo, Sorghum halepense
Conditions: 125 g ai/ha, scale 0 to 100, 0 no effect, 100 complete control
Give your answer as a number; write no unit.

Below: 3 compounds and their reported Plant response rating, Johnsongrass.
N#Cc1cccc(Oc2ncc(Br)cn2)c1-n1cc(I)cn1: 15
FC(F)(F)COc1cnn(-c2ccccc2Oc2ncc(Cl)cn2)c1: 40
FC(F)(F)c1cnn(-c2ccccc2Oc2ncc(Br)cn2)c1: 80

Next, consider the following compound.
Find Plant response rating, Johnsongrass (johnsongrass) for the entry N#Cc1cnn(-c2c(C#N)cccc2Oc2ncc(F)cn2)c1
70

Each recorded value in this set is attributed to patent US9695155B2.
